Test system: SK-MEL-2 melanoma
test details: NCI tumour cell line growth inhibition, 48 h
assay metric: TGI

1) O=C(Nc1ccccc1)N1CCN(C(=O)Nc2ccccc2)C1=S	> 100 µM
2) O=C1NC(=NCCc2ccc(Cl)cc2)S/C1=C\c1ccc2ncccc2c1	> 25 µM
3) COc1cc2c(cc1OC)C(=O)N(c1ccc(OCCN3CCCC3)cc1)C2	> 100 µM
4) CCOc1c(Br)cc(Br)cc1C=C(C#N)C#N	> 10 µM
5) CCCCCCCC(=O)OCC/C=C/C1OC1C1OC(=O)/C=C\C=C\C(=O)N(C(C)=O)C(=O)/C=C(/C)CCC2OC2C1OC(=O)NC(C)=O (stereo not given)	20.4 µM

These data points were gathered from PubChem BioAssay (NCI).
